// provenance: PubChem BioAssay AID328

- System: BDF1 mice, P388 leukemia ip, median survival T/C
- assay overview: NCI In Vivo Anticancer Drug Screen. Data for tumor model P388 Leukemia (intraperitoneal) in B6D2F1 (BDF1) mice
- assay setup: endpoint: median survival time; dose: 200.0 mg/kg/injection; schedule: Q01DX009 (ip); vehicle: saline with Tween-80
Toxic doses and inconclusive results are not listed. How the source made its calls: active means survival T/C of 150% or more; inactive means T/C below 125% in these data.
Outcome codes: t for active, f for inactive

compound	category label
CCCCN(C(=O)C(F)(F)F)C(C)(C)C(SSSC(c1ccc(Cl)cc1)C(C)(C)N(CCCC)C(=O)C(F)(F)F)c1ccc(Cl)cc1 (stereo unspecified)	f
COc1ccc(/C=C2\CCCC3=C2NC(=S)NC3c2ccc(OC)cc2)cc1 (stereo unspecified)	f
COC1=CC(=O)CC(C)C12Oc1c(Cl)c(OC)cc(OC)c1C2=O (stereo unspecified)	f
CN1C(=O)NNC(=O)c2ccccc21	f
N#C/C(=C/Cc1ccccc1)Nc1ccccc1	f
NCCNCc1c[nH]c(=O)[nH]c1=O	f
CCCCCCC(=O)CC(SCC)c1ccc(Cl)cc1 (stereo unspecified)	f
O=C(/C=C/c1ccccc1Cl)NCC(O)CO (stereo unspecified)	f
CCCCC(C)C(=O)CC(SCC)c1ccccc1 (stereo unspecified)	f
CCSC(=O)N1c2ccc(OC)cc2C=CC1C#N (stereo unspecified)	t
Cc1c(Cl)cnc(N)c1Cl (tested in a mixture with another compound)	f

====

Listed next: entries and their corresponding T/C.
- System: BDF1 mice, P388 leukemia ip, median survival T/C
- assay overview: NCI In Vivo Anticancer Drug Screen. Data for tumor model P388 Leukemia (intraperitoneal) in B6D2F1 (BDF1) mice
- assay setup: endpoint: median survival time; dose: 50.0 mg/kg/injection; schedule: Q04DX003 (ip); vehicle: saline with Tween-80; higher = longer survival
Inconclusive results and toxic doses are left out.
endpoint name: T/C

compound	endpoint name	value reported
CN(C)C(=O)c1cccc(NCc2ccc3nc(N)nc(N)c3c2)c1	T/C	100 % of control
COC(OC)c1[nH]c(=S)[nH]c(=O)c1Cc1cc([N+](=O)[O-])ccc1O	T/C	108 % of control
CN1CCC(S)(S)CC1	T/C	109 % of control
CCN(C(C)(C)C(SSSC(c1ccc(Cl)cc1)C(C)(C)N(CC)S(C)(=O)=O)c1ccc(Cl)cc1)S(C)(=O)=O (configuration not stated)	T/C	109 % of control
CCCCCCCCCCCCNCc1ccc(O)cc1	T/C	100 % of control
Cc1cccc(C(=O)C=C(C(F)(F)F)C(F)(F)F)c1	T/C	119 % of control
CC(C)CC(CC(C)C)NCC(C)OC(=O)c1ccc(N)cc1 (configuration not stated)	T/C	114 % of control
Cc1cc(NC(=O)c2ccccc2)c(Cl)cc1N	T/C	95 % of control
c1cc2ccsc2cn1	T/C	91 % of control
NC(=O)NC(C(=O)O)(c1ccccc1)C1CCC1 (configuration not stated)	T/C	99 % of control
C(=NCCN=Cc1c[nH]c2ccccc12)c1c[nH]c2ccccc12	T/C	111 % of control
O=C(Cl)c1ccc(N2C(=O)c3ccccc3C2=O)cc1[N+](=O)[O-]	T/C	96 % of control

====

- Tested on: BDF1 mice, P388 leukemia ip, median survival T/C
- assay overview: NCI In Vivo Anticancer Drug Screen. Data for tumor model P388 Leukemia (intraperitoneal) in B6D2F1 (BDF1) mice
- assay setup: endpoint: median survival time; dose: 3.12 mg/kg/injection; schedule: Q01DX009 (ip); vehicle: saline with Tween-80; higher = longer survival
Inconclusive results and toxic doses are left out.
endpoint name: T/C

smiles str	value reported
CN(C)C(=O)c1cccc(NCc2ccc3nc(N)nc(N)c3c2)c1	108 % of control
Nc1ccc(OCCCCNC(=O)c2ccc(S(=O)(=O)F)cc2)c(Cl)c1	102 % of control
FC(F)(F)C1=N/C(=C2\N=C(C(F)(F)F)N=C2Cl)C(Cl)=N1	116 % of control
O=c1c2ccccc2nc(-c2ccccc2)n1-c1nnc(C(F)(F)F)s1	101 % of control
